Test system: K562 CRISPRi cells
assay.name: Perturb-seq pooled growth measurement (sgRNA counts, growth phenotype γ, relative activity)
Type: cell-based, human
condition: pooled growth phenotype γ of the Perturb-seq sgRNA, day 5, K562 CRISPRi cells
observed.property: gamma_day5

Below, 2 substances whose answers are already recorded.
{"substance": "POLR1D_ + _28196016.23-P1_03 (guide GGTAAGCAAGGACCGACCGA; listed as DNA, chemistry not fully specified)", "observed.property": "gamma_day5", "reading": "−0.8471"}
{"substance": "GATA1_ −_48645022.23-P1P2_03 (guide GTGCGCTTGCCACATCCCCA; listed as DNA, chemistry not fully specified)", "observed.property": "gamma_day5", "reading": "−0.9855"}

With those in mind, consider the next substance.
INPUT: Need gamma_day5 of ATP5E_ −_57607036.23-P1P2_04 (guide GGTGTCCAGGAGCACTCTGT; listed as DNA, chemistry not fully specified) , thanks.
OUTPUT: −0.09793

Measured values drawn from patent US20220259593A1 for this set.
